Target: Gal(b1-3)[Fuc(a1-4)]GlcNAc(b1-3)Gal(b1-3)[Fuc(a1-4)]GlcNAc
Assay: glycan array binding signal (z-score within array); higher = stronger binding
Conditions: glycan notation: IUPAC condensed, linker removed
About 410 targets per protein were measured; listed, in parts, are those with the strongest signals and a random draw of the rest.
Below is a list of entries, each paired with its recorded glycan array binding signal (z-score) value.
measurement.kind: glycan array binding signal (z-score)

binder="MXA PilAct-eGFP (Myxococcus xanthus), Q59589 (protein) MRVSRFNPRNRGFTLIELMIVVAIIGILAAIAIPNFIKFQARSKQSEAKTNLKALYTAQKSFFSEKDRYSDFANEIGFAPERGNRYGYRVSAAAGDCEVRNAADLPVPAAGVPCISNDSFRFGANSAIDDPTPVVARFVPQGAAGWNTTLGVQPTIADCPNCNFFAGARGNADNEATFDDWVIAGFEGSGQVGPCSEAGNVASGTPYNTRNDVACDGAAQ" measurement_kind="glycan array binding signal (z-score)" recorded_result=-2.03
binder="DC-ASGPR L+GEE (Homo sapiens) (protein) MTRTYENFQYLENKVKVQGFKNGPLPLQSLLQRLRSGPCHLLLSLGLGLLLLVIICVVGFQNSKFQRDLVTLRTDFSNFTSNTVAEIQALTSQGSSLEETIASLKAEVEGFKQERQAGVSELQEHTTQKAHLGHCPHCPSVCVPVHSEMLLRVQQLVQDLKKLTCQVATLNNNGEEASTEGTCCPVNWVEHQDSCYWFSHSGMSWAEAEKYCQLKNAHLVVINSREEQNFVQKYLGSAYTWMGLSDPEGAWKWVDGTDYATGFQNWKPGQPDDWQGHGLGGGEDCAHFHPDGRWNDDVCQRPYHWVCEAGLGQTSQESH" measurement_kind="glycan array binding signal (z-score)" recorded_result=-0.093
binder="AAA (Anguilla anguilla), Q7SIC1 (protein) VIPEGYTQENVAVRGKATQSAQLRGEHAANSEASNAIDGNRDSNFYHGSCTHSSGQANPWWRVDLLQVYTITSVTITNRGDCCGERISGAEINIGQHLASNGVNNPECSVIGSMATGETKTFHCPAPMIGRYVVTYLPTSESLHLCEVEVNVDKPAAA" measurement_kind="glycan array binding signal (z-score)" recorded_result=0.164
binder="AT3G44510(29) (Arabidopsis thaliana), F4J341 (protein) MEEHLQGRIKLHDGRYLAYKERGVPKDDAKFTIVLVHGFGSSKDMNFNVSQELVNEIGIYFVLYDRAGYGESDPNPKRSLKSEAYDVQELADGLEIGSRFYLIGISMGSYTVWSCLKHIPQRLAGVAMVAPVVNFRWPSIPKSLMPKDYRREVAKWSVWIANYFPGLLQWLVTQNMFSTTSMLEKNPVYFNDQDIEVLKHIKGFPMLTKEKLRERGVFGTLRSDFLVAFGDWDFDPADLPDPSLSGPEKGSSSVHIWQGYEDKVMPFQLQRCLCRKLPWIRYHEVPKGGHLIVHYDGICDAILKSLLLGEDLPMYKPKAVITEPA" measurement_kind="glycan array binding signal (z-score)" recorded_result=-0.685
binder="EULS2 M3 (Oryza sativa) (protein) MVYCRANPNYAMTARNGAVVLAPANPKDEYQHWIKDMRWSTSIKDEEGYPAFALVNKATGQAIKHSLGQSHPVRLVPYNPEVMDESVLWTESRDVGNGFRCIRMVNNIYLNFDAFHGDKYHGGVRDGTDIVLWKLCEGDSLRWKIQPYYILEQKLISEEDLNSAVDHHHHHH" measurement_kind="glycan array binding signal (z-score)" recorded_result=2.13
binder="XTP3-B-MRH2 (Homo sapiens), Q96DZ1 (protein) EFLSGSYCFRGGVGWWKYEFCYGKHVHQYHEDKDSGKTSVVVGTWNQEEHIEWAKKNTARAYHLQDDGTQTVRMVSHFYGNGDICDITDKPRQVTVKLKCKESDSPHAVTVYMLEPHSCQYILGVESPVICKILDTA" measurement_kind="glycan array binding signal (z-score)" recorded_result=3.38
